target: porcine pancreatic amylase (Sus scrofa, UniProt P00690)
Sequence (P00690 16-511): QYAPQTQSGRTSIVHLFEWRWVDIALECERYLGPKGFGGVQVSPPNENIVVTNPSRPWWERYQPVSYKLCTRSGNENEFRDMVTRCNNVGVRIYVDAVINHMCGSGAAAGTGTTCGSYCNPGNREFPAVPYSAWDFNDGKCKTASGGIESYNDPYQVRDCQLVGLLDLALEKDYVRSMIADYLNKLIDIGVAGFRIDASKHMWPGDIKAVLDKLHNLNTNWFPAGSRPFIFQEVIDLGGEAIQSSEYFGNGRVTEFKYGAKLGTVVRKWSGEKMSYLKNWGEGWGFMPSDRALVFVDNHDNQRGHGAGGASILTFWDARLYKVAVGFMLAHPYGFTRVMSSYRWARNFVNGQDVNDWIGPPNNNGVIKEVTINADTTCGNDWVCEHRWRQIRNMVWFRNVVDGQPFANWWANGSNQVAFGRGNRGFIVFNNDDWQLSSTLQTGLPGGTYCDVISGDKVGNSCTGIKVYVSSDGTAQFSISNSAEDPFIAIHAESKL
pIC50: −log10 of the molar value.
observed-property: pIC50

compound	endpoint-value
CC[C@H](CC[C@@H](C)[C@H]1CC[C@H]2[C@@H]3CC=C4C[C@@H](O[C@@H]5O[C@H](CO)[C@@H](O)[C@H](O)[C@H]5O)CC[C@]4(C)[C@H]3CC[C@]12C)C(C)C [compound 14, β-sitosterol glucoside]	3.95
C[C@@H]1CC[C@]2(C(=O)O)CC[C@]3(C)C(=CC[C@@H]4[C@@]5(C)CC[C@H](O)C(C)(C)[C@@H]5CC[C@]43C)[C@@H]2[C@]1(C)O [compound 13, pomolic acid]	3.85
